Biological target: T1, IL-18Rα-Fc (CD218a protein, Fc tag; ECD 19-329; ACROBiosystems, Inc, Cat. No. IL1-H5259) (UniProt Q13478 19-329)
T1 chain: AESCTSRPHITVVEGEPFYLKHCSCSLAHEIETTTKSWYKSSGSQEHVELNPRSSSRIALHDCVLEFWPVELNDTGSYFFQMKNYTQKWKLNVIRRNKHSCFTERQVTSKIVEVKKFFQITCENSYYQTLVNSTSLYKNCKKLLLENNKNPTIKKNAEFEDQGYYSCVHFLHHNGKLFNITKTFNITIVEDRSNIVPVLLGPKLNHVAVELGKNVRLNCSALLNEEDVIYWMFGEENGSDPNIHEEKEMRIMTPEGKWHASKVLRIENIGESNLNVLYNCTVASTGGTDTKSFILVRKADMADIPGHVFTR
Assay: competition ELISA; tracer 7C06(bn1713)/NA-HRP 75 nM
Quantity Measured: pIC50
Bear in mind: pIC50 is minus log10 of a mol/L concentration; give just that figure.

// query Fill blank: measured pIC50 of the binder GGFFECFYSPGHEWCIPSGG [7C06] is ____.
// result 6.46
